Listed below: switch fluorescence ratio values for each entry.
# Test system: ATP;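 also: ATP exposure 15 min at 22 °C before imaging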
# test.details: switch fluorescence ratio, 500 uM ATP over buffer (Cy3 cluster intensity, sum of 5 cycles each) (fold (ratio)); higher = stronger signal-on switching upon ATP binding; sequences stand for … in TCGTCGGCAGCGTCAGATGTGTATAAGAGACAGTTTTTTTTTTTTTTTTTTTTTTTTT…TC
# condition.parameters: aptamer strand: ATP DNA aptamer (quencher-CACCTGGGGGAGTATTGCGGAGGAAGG + anchor), 100 nM annealed; ATP concentration: 500 uM
API note: the answer field is a bare number with no unit suffix.

record_sequence=TTTTGTACGC recorded_measurement=1.1
record_sequence=TGAGGTGTAT recorded_measurement=0.987
record_sequence=GCGGGCGGCG recorded_measurement=0.974

Could you now look at the following sequence, please?
For this sequence ( "GGGGTTCACG" ), measured switch fluorescence ratio is 0.988
